// data source = PubChem BioAssay AID1508612

Measured Papp, listed per entry for reference.
assay.notes: passive permeability, PAMPA, ADME assay (AID 1508612)
recorded.conditions: pH 7.4, 30.0 min, 50.0 µM
Reply numerically in ×10⁻⁶ cm/s, unit not repeated.

Sample records with Papp:
> print(dat)
                                   molecule  recorded.value
1  O=C(Nc1ccccc1)C1CCN(c2nc(-c3ccc(Br)cc3)cs2)CC1            48.6
2  CCc1ccc(-n2nc(C)c3c2NC(=O)CSC3c2ccccc2C)cc1 (stereo not given)             707
3  CN(C)c1cccc(-c2nccc(N3CCC(C(N)=O)CC3)n2)c1             287
4  Fc1cccc(-c2ccc(Nc3nc(-c4ccncc4)nc4ccccc34)cc2F)c1              49

Lab note: next molecule to report on.
## Task # Papp lookup, item `CCCCn1cnc2cc(NC(=O)c3cc(OC)c(OC)c(OC)c3)ccc21`
## Result 693

###

assay.notes: passive permeability, PAMPA, ADME assay (AID 1508612)
recorded.conditions: pH 7.4, 30.0 min, 50.0 µM
quantity.measured: Papp (×10⁻⁶ cm/s)
Form entry: value (×10⁻⁶ cm/s) — number only.

In the examples that follow, each entry is paired with its recorded Papp.
> print(dat)
                                   molecule  quantity.measured        unit  recorded.value
1  CN[C@@H](C)C(=O)N[C@@H]1C(=O)N(Cc2c(C)ccc3ccccc23)c2ccc(C#N)cc2N(C(C)=O)[C@H]1C               Papp  ×10⁻⁶ cm/s             551
2  N#Cc1cnccc1-c1nc(Nc2ccc(F)c(F)c2)c2ccccc2n1               Papp  ×10⁻⁶ cm/s             269
3  O=C(NCCc1ccc(OCC(F)(F)F)c(OCC(F)(F)F)c1)c1cc2sccc2n1Cc1ccccc1               Papp  ×10⁻⁶ cm/s            24.5
4  O=C1C2=C(Nc3ccccc3SC2c2ccco2)c2ccccc21 (configuration not stated)               Papp  ×10⁻⁶ cm/s             371

## Task Query (molecule): `CCOC(=O)N1CCN(C(=O)Cn2sc3nc(C)cc(C)c3c2=O)CC1` ; field requested: Papp
## Result 47.1

## Task Now this one: `CC(=O)Nc1cc(-c2nc(Nc3ccc(F)c(F)c3)c3ccccc3n2)ccn1`
## Result 438

## Task Same question for `COC(=O)c1ccc2c(C(=Nc3ccc(N(C)C(=O)CN4CCN(C)CC4)cc3)c3ccccc3)c(O)[nH]c2c1` please.
## Result 12.5

## Task Let us now turn to `Cc1c(-c2nsc(NC(=O)c3cccc(Cl)c3)n2)nnn1-c1ccccc1C(F)(F)F`
## Result 706

###

# Papp listing for each entry below
assay.notes: passive permeability, PAMPA, ADME assay (AID 1508612)
recorded.conditions: pH 7.4, 30.0 min, 50.0 µM
Express it in ×10⁻⁶ cm/s; write the number only.

> print(dat)
                                   compound  recorded.value
1  Cc1cn2nc(-c3nc(C4CCCN(C(=O)c5ccccc5)C4)no3)cc2c(=O)[nH]1 (stereo unspecified)             136

## Task Look at this compound and give its reported Papp. `CCc1ccc(NC(=O)c2[nH]c(C)c(C(C)=O)c2C)cc1S(=O)(=O)Nc1cccc(C#N)c1`
## Result 178

## Task Next entry: `O=C(Nc1ccc(S(=O)(=O)Nc2nccs2)cc1)c1ccncc1`
## Result 1.4

## Task Then what about the compound `O=C(CCCCCCC(=O)Nc1ccccc1)NO` ?
## Result 63.4

## Task Same question, `NC(=O)C1CCN(c2nc(-c3cccc(F)c3)cs2)CC1` this time
## Result 685

## Task // same read-out, input: `Oc1ccc(CNc2ccc(F)cc2F)c2cccnc12`
## Result 178

###

assay.notes: passive permeability, PAMPA, ADME assay (AID 1508612)
recorded.conditions: pH 7.4, 30.0 min, 50.0 µM
Entries annotated with measured Papp
The figure you give is taken to be in ×10⁻⁶ cm/s; do not add the unit.

molecule	recorded.value
CNC(=O)C1CCN(C(=O)c2ccc(-c3ncc4cnc(-c5ccccc5)cn34)cc2)CC1	15.4
COc1cc(-c2csc(N3CCC(C(N)=O)CC3)n2)cc(OC)c1OC	257
Cc1cnccc1-c1nc(Nc2ccc(F)c(F)c2)c2ccccc2n1	31.1
Cc1ccc(-c2ccc(CNc3nc(-c4ccccc4C(C)C)ncc3C)cc2)cn1	824
CC1(C)CCC(c2ccc(Cl)cc2)=C(CN2CCN(c3ccc(C(=O)NS(=O)(=O)c4ccc(N[C@H](CCN5CCOCC5)CSc5ccccc5)c(S(=O)(=O)C(F)(F)F)c4)cc3)CC2)C1	1.1
NC[C@H](O)c1ccc(O)c(O)c1	5.7

## Task Data request, read-out Papp, for `Oc1ccc(C(=S)N2CCN(c3cccc(Cl)c3)CC2)cc1`
## Result 677

## Task Entry `Cn1nnnc1Sc1ncnc2scc(-c3cccc(S(C)(=O)=O)c3)c12` please
## Result 93.9

## Task Same read-out for O=S(=O)(Nc1nc2n(n1)C(c1ccccc1)C=C(c1ccc(Cl)cc1)N2)c1ccccc1 (stereo not given) ?
## Result 9.09

## Task // query: OCC(O)CCO/N=C1/C(c2c(O)[nH]c3ccccc23)=Nc2ccccc21 (stereo not given)
## Result 961

## Task Next molecule up: CCOC(=O)c1ccc(N2C(=O)c3n[nH]c(-c4ccco4)c3C2c2ccc(C)cc2)cc1 (stereo not given)
## Result 6.34

###

assay.notes: passive permeability, PAMPA, ADME assay (AID 1508612)
recorded.conditions: pH 7.4, 30.0 min, 50.0 µM
quantity.measured: Papp (×10⁻⁶ cm/s)
The answer is to be given in ×10⁻⁶ cm/s; state only the numeric part.

Some compounds with known Papp results, for comparison:
> print(dat)
                            chemical.smiles  quantity.measured  recorded.value
1  COc1ccc(-c2cc(-c3cccc(NC(C)=O)c3)cn3cncc23)cn1               Papp              39
2  COc1ccc(NC(=O)c2cc(-c3ccc[nH]3)n[nH]2)cc1OC               Papp             120
3  CC(C)Oc1ccc(C(=O)Nc2ccc3c(c2)CCCN3C(=O)c2cccs2)cc1               Papp             491

## Task Consider the compound shown here: `CC(=O)NC1CCN(c2nc(-c3ccc(Br)cc3)cs2)CC1` What is its recorded Papp?
## Result 789

###

Examples of compounds with documented Papp follow.
assay.notes: passive permeability, PAMPA, ADME assay (AID 1508612)
recorded.conditions: pH 7.4, 30.0 min, 50.0 µM
Write the value in ×10⁻⁶ cm/s as a bare number.

# count of solved cases: 4
> print(dat)
                                   compound        unit  recorded.value
1  COCCn1ccc2c(C3=CCOCC3)nc(-c3cccc(NC(C)=O)c3)cc21  ×10⁻⁶ cm/s             464
2  C#CCOc1ccc(-c2nnc(Nc3ccc(NC(C)=O)cc3)c3ccccc23)cc1  ×10⁻⁶ cm/s             502
3  Nc1c(C(=O)Nc2ccc(Cl)cc2)sc2nc3c(cc12)N1CCC3CC1  ×10⁻⁶ cm/s             697
4    Cc1ccnc(NC(=S)N2CCN(c3ccc(N)cc3)CC2)c1  ×10⁻⁶ cm/s             717

## Task State the recorded Papp for this entry: `COc1cccc(C(=O)Nc2ccc([S+](=O)([O-])Nc3nccs3)cc2)c1O`
## Result 3.5

###

assay.notes: passive permeability, PAMPA, ADME assay (AID 1508612)
recorded.conditions: pH 7.4, 30.0 min, 50.0 µM
Use 100 ×10⁻⁶ cm/s as the dividing line for Papp, with the line itself on the 1.0 side and lower values as 0.0.

Examples with answers:
> print(dat)
                            chemical.smiles  cat
1  Cn1c(CN2CCCCC2)nc2cc(NC(=O)c3cccc(Br)c3)ccc21  1.0
2    Cc1ccc(-n2ncc3c(NCCCN(C)C)ncnc32)cc1Cl  1.0
3                     O=c1[nH]cnc2nc[nH]c12  0.0
4   CCOC(=O)c1nn(-c2ccccc2)c(=O)c2c(N)scc12  1.0
5  Fc1cc(-c2nc(Nc3ccc(F)c(F)c3)c3ccccc3n2)ccn1  1.0

Query compound follows.
## Task // inclusive: Papp at least 100 ×10⁻⁶ cm/s? input: `COC(=O)c1ccnc(-c2cc(C(=O)NCCc3ccccc3)ccn2)c1`
## Result 1.0
